Molecular target: CDK8/Cyclin C (Homo sapiens, UniProt P49336)
Sequence (P49336 whole entry): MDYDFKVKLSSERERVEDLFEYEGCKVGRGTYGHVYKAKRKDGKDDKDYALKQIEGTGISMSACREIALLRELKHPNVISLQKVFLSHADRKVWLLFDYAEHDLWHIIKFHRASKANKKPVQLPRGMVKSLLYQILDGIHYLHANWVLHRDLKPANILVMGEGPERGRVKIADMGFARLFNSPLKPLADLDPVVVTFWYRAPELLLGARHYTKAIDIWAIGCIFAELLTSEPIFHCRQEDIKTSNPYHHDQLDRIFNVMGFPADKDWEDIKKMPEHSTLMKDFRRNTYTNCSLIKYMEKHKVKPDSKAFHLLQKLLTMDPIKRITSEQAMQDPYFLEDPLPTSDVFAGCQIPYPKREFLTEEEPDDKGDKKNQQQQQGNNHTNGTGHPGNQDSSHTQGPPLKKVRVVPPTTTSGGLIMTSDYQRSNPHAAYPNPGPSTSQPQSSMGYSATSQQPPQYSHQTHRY
Sequence (P24863 whole entry partner): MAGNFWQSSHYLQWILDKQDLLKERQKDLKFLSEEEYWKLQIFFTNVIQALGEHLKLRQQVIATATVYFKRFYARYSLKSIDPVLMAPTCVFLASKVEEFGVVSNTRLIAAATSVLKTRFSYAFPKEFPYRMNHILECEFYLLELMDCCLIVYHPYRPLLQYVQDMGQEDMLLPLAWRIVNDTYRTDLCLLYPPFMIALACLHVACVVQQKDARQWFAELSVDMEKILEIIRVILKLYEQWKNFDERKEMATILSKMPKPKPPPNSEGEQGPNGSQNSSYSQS
Assay: NanoBRET live-cell target engagement, NanoLuc-CDK8/Cyclin C in HEK-293
Type: binding
Conditions: CDK8/C; 10µM; average of replicates; read-out: Inhibition at 10µM (%) Average
Rule: inhibition at 10 µM under 10% gives FALSE, otherwise TRUE.

Task: Say whether CCCCOc1c(C(=O)c2c(F)cc(C)cc2F)c[nH]c2nncc1-2 shows inhibition at 10 µM of 10% or more.
Result: TRUE

Task: Say whether O=C(NC1CCNCC1)c1[nH]ncc1NC(=O)c1c(Cl)cccc1Cl shows inhibition at 10 µM of 10% or more.
Result: TRUE

Task: Say whether CC(C)c1cnn2c(NCc3ccccc3)cc(NCCCCCCN)nc12 shows inhibition at 10 µM of 10% or more.
Result: FALSE

Task: Say whether COc1cc(F)ccc1-c1ncnc(Nc2cccc(C[S@](C)(=N)=O)c2)n1 shows inhibition at 10 µM of 10% or more.
Result: FALSE

Task: Say whether CCN1CCN(Cc2ccc(NC(=O)Nc3ccc(Oc4cc(NC)ncn4)cc3)cc2C(F)(F)F)CC1 shows inhibition at 10 µM of 10% or more.
Result: TRUE

***
Task: Say whether Cc1ncc(-c2ccnc(Nc3ccc(S(C)(=O)=O)cc3)n2)n1C(C)C shows inhibition at 10 µM of 10% or more.
Result: TRUE

Task: Say whether C[C@H]1CC[C@H](n2c3cnccc3c3cnc(Nc4ccc5c(n4)CCN(C(=O)CO)C5)nc32)CC1 shows inhibition at 10 µM of 10% or more.
Result: TRUE

Task: Say whether CCN1CCN(Cc2ccc(Nc3ncc(F)c(-c4cc(F)c5nc(C)n(C(C)C)c5c4)n3)nc2)CC1 shows inhibition at 10 µM of 10% or more.
Result: TRUE

---

Target: CDK6/Cyclin D1 (Homo sapiens)
Sequence (Q00534 whole entry): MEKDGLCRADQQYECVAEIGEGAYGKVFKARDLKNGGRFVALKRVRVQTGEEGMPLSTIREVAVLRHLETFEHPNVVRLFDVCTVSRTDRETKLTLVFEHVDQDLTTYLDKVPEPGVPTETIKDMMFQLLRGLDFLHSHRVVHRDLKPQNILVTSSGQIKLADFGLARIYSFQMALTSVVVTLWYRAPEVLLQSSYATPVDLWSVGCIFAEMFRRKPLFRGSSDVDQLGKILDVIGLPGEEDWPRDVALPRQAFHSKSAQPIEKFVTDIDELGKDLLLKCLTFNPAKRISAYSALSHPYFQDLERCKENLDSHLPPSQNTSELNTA
Sequence (P24385 whole entry partner): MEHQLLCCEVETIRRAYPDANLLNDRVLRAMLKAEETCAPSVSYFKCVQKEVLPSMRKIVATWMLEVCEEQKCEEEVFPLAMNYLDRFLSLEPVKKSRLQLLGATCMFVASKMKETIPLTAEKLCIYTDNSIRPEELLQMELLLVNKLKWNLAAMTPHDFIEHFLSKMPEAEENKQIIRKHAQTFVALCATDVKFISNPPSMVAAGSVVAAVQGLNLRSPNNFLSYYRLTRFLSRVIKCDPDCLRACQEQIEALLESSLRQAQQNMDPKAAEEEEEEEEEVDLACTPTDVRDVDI
Experiment: NanoBRET live-cell target engagement, NanoLuc-CDK6/Cyclin D1 in HEK-293
Assay type: binding
Settings: CDK6/D1; average; read-out: Inhibition at 10µM (%)
Below, each entry is listed alongside its reported inhibition at 10 µM.
Unit % implied. Number only.

Task: Check CDK6/Cyclin D1 (Homo sapiens) data and give inhibition at 10 µM for CC(C)N1CCN(c2ccc(Nc3ncc4cc5n(c4n3)C3(CCCCC3)CNC5=O)nc2)CC1 .
Result: 98.9

Task: Check CDK6/Cyclin D1 (Homo sapiens) data and give inhibition at 10 µM for Cn1cc(-c2ccc(-c3cncc(Cl)c3N3CCC4(CCNC4=O)CC3)cc2)cn1 .
Result: -5

Here is the next item to consider.
Task: Check CDK6/Cyclin D1 (Homo sapiens) data and give inhibition at 10 µM for COc1ccccc1-c1cc(Nc2cccc(CS(N)(=O)=O)c2)ncn1 .
Result: 38.7

---

Below, each entry is listed alongside its reported IC50.
Target: CDK8/Cyclin C (Homo sapiens, UniProt P49336)
Experiment: NanoBRET live-cell target engagement, NanoLuc-CDK8/Cyclin C in HEK-293
Format: binding
Settings: CDK8/C; read-out: IC50 (nM) Replicate 2
Unit nM implied. Number only.

Answered cases to consult:
Task: Determine from records and report IC50 for CCCCOc1c(C(=O)c2c(F)cc(C)cc2F)c[nH]c2nncc1-2
Result: 0.45

Task: Determine from records and report IC50 for Cc1ncc(-c2ccnc(Nc3ccc(S(C)(=O)=O)cc3)n2)n1C(C)C
Result: 79

***
Task: Determine from records and report IC50 for CNC1CCN(C(=O)c2ccc(Nc3ncc(F)c(-c4cnc(C)n4C(C)C)n3)cc2)C1 (stereo not shown)
Result: 297

Task: Determine from records and report IC50 for CCN1CCN(Cc2ccc(NC(=O)Nc3ccc(Oc4cc(NC)ncn4)cc3)cc2C(F)(F)F)CC1
Result: 25
